Below: a set of entries, each annotated with reported MIC.
- System: Staphylococcus aureus
- test: Antibacterial activity against Staphylococcus aureus ATCC 29213 measured after 16 to 20 hrs by microdilution method
- Format: functional
Use µg/mL as the unit, but write only the number.

                              smiles_record  value_observed
0  CS(=O)(=O)Nc1cccc(-n2c(NCc3ccc(C#N)cc3)nc3ccccc3c2=O)c1           0.125
1  N#Cc1ccc(/C=C/c2nc3ccccc3c(=O)n2-c2cccc(C(=O)O)c2F)cc1               8
2  O=C(O)c1cccc(-n2c(/C=C/c3cccs3)nc3ccccc3c2=O)c1               8
3  N#Cc1ccc(/C=C/c2nc3ccccc3c(=O)n2-c2cccc(NC(=O)CCc3cnc[nH]3)c2)cc1               8

May I ask what MIC has been recorded for "O=C(O)c1cccc(-n2c(/C=C/c3ccc(Cl)cc3)nc3ccccc3c2=O)c1" ?
0.25

May I ask what MIC has been recorded for "O=C(O)c1cccc(-n2c(/C=C/c3ccc(I)cc3)nc3ccccc3c2=O)c1" ?
0.5

May I ask what MIC has been recorded for "O=C(O)c1cccc(-n2c(/C=C/c3cc(Cl)cs3)nc3ccccc3c2=O)c1" ?
4

May I ask what MIC has been recorded for "O=C(O)c1cccc(-n2c(/C=C/c3ccncc3)nc3ccccc3c2=O)c1" ?
64

May I ask what MIC has been recorded for "N#Cc1ccc(/C=C/c2nc3ccccc3c(=O)n2-c2ccc(F)c(C(=O)O)c2F)cc1" ?
64

May I ask what MIC has been recorded for "N#Cc1ccc(/C=C/c2nc3ccccc3c(=O)n2-c2cccc(S(N)(=O)=O)c2)cc1" ?
0.25

May I ask what MIC has been recorded for "CC(=O)NS(=O)(=O)c1cccc(-n2c(/C=C/c3ccc(C#N)cc3)nc3ccccc3c2=O)c1" ?
4

Values compiled from ChEMBL document CHEMBL4342526.
